# assayed_system: EGFR L858R (Homo sapiens (Human), UniProt P00533, L858R)
# Sequence (P00533 25-1210 L858R): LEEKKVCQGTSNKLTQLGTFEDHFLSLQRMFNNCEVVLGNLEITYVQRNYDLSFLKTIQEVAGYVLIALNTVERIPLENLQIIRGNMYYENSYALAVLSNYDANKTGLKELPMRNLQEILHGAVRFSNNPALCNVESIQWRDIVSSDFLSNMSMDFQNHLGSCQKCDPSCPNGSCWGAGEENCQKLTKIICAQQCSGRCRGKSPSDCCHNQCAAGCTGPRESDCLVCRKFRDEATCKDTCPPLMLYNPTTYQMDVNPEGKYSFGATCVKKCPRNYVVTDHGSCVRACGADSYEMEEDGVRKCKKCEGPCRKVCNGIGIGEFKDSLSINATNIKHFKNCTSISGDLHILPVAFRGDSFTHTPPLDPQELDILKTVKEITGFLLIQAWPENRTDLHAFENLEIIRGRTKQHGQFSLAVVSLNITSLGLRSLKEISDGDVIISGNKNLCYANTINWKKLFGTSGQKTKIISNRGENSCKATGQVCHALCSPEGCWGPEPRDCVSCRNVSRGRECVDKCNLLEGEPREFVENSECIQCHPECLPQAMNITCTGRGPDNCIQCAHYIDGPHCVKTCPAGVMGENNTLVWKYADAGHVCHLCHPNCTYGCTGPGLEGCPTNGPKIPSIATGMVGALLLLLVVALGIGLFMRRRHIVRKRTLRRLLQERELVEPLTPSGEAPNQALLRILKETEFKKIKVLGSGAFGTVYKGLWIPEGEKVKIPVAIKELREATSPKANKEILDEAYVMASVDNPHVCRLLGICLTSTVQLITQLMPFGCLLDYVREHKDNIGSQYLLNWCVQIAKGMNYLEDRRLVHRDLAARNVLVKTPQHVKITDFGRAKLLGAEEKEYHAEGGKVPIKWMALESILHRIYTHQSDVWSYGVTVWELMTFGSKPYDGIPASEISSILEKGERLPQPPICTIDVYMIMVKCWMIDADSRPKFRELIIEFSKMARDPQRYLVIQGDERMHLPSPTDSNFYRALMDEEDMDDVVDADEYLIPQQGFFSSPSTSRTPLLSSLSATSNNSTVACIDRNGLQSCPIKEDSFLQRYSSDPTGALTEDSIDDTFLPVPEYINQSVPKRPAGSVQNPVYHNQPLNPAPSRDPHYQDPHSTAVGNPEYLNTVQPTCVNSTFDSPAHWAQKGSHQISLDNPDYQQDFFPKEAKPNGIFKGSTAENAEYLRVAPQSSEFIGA
# assay_procedure: Biochemical EGFR inhibition assay, EGFR L858R
# run_parameters: Caliper mobility shift; 1.0 mM ATP or ATP Km; read-out: Enz EGFR_L858R IC50
measurement_label: IC50 (nM)
Numbers only, in nM.

1. COc1cc2ncnc(-c3cn(C)nc3-c3ccccc3)c2cc1NC(=O)c1ccncc1C [Example 191]
3.8
2. CCC(=O)Nc1cc2c(-c3cn(C)nc3-c3ccccc3)ncnc2cc1C#CCN1CCOCC1 [Example 451]
3.5
3. COc1cc2ncnc(-c3cn(CCN(C)C)nc3-c3ccccc3)c2cc1NC(=O)C12CC(C1)C2 [Example 308]
7.3

Record IC50 per entry; entries follow.
1. COc1cc2ncnc(-c3c(-c4ccccc4)nn(C)c3C)c2cc1OC(=O)N1CCN(C)C[C@@H]1C [Example 482]
2. CC(C)Oc1cc2ncnc(-c3cn(C)nc3-c3ccccc3)c2cc1[C@H](C)O (single isomer, unassigned) [Example 113]
3. COc1cc2ncnc(-c3cn(C)nc3-c3ccccc3)c2cc1NC(=O)c1cnn2c1CCCC2 [Example 226]
4. COc1cc2ncnc(-c3cn(C)nc3-c3ccccc3)c2nc1-c1ccc2c(c1)CNC2=O [Example 152]
5. Cn1cc(-c2cc(F)c3c(-c4cn(C)nc4-c4ccccc4)ncnc3c2)cn1 [Example 439]
6. Cc1nnc([C@H](C)Oc2nc3c(-c4cn(C)nc4-c4ccccc4)ncnc3cc2OC2CC2)o1 (single isomer, unassigned) [Example 477]
7. Cn1cc(-c2ccc3c(-c4c[nH]nc4-c4ccccc4)ncnc3c2)cn1 [Example 441]
8. COc1cc2ncnc(-c3cn(C)nc3-c3ccccc3)c2cc1OC(=O)N1CCN(C)C[C@H]1C (single isomer, unassigned) [Example 58]

1: 207; 2: 5.5; 3: 1.6; 4: 2; 5: 0.7; 6: 7.7; 7: 1.1; 8: 4.5
